System: IL-1β production in PMA-differentiated THP-1 cells
measurement.notes: IL-1β production in PMA-differentiated THP-1 cells stimulated with gramicidin (hTHP-1 assay containing 2% fetal bovine serum)
Assay type: cell-based, human
condition.info: Homo sapiens, THP-1, Table B1; 2% fetal bovine serum; class symbols; read-out: hTHP-1 IC50 (Average IC50 of compounds in hTHP-1 assay)
reported.endpoint: IC50

Q: Fill blank: measured IC50 of the molecule CC(C)c1cc2c(c(C(C)C)c1CC(=O)N=S(N)(=O)c1cnn3c1OCCC3)COC2 (single isomer, unassigned) [Example 310] is ____.
Ans: 1000 to 5000 nM

====

System: IL-1β production in PMA-differentiated THP-1 cells
measurement.notes: IL-1β production in PMA-differentiated THP-1 cells stimulated with gramicidin (hTHP-1 assay containing 2% fetal bovine serum)
Format: cell-based, human
condition.info: Homo sapiens, THP-1, Table B1; 2% fetal bovine serum; class symbols; read-out: hTHP-1 IC50 (Average IC50 of compounds in hTHP-1 assay)
reported.endpoint: IC50

Consider the following illustrative entries.
compound="CC(C)c1cc(C(F)F)nc(C(C)C)c1CC(=O)N=S(N)(=O)c1ccc(CN(C)C)cc1 (single isomer, unassigned) [Example 331]" obs_value="1 to 5 µM"
compound="CC(C)c1cc2c(c(C(C)C)c1CC(=O)N=S(N)(=O)c1cnn3c1OCCC3)COC2 (stereo not shown) [Example 267]" obs_value="5 to 30 µM"
compound="CC(C)c1nc(-c2cccc(C(F)(F)F)c2)c(F)c(C(C)C)c1CC(=O)N=S(N)(=O)c1cnc(C(C)(C)O)s1 (stereo not shown)" obs_value="0.2 to 1 µM"
compound="CC(C)c1cc(F)cc(C(C)C)c1CC(=O)N=S(N)(=O)c1ccc(C(C)(C)O)cc1 (stereo not shown)" obs_value="1 to 5 µM"
compound="CC(C)c1cc(CCC2CCCCC2)cc(C(C)C)c1CC(=O)N=S(N)(=O)c1cc(C(C)(C)O)n(-c2ccccc2)n1 (stereo not shown) [Example 228]" obs_value="5 to 30 µM"
compound="CC(C)c1ccc(F)c(C(C)C)c1CC(=O)N=S(N)(=O)c1ccc(C(C)(C)O)s1 (stereo not shown)" obs_value="0.2 to 1 µM"

Q: Fill in: IC50 of CC(C)c1cc2c(c(C(C)C)c1CC(=O)N=S(N)(=O)c1cnc(C(C)(O)CO)s1)COC2 (single isomer, unassigned) [Example 338] is ___
Ans: 0.2 to 1 µM

====

Parameter IC50: see the listing below.
Test system: IL-1β production in PMA-differentiated THP-1 cells
measurement.notes: IL-1β production in PMA-differentiated THP-1 cells stimulated with gramicidin (hTHP-1 assay containing 2% fetal bovine serum)
Format: cell-based, human
condition.info: Homo sapiens, THP-1, Table B1; 2% fetal bovine serum; class symbols; read-out: hTHP-1 IC50 (Average IC50 of compounds in hTHP-1 assay)

Some compounds with known IC50 results, for comparison:
compound="CC(C)c1cc(C(F)F)cc(C(C)C)c1CC(=O)N=S(N)(=O)c1ccc(CN(C)C)cc1 (stereo not drawn)" obs_value="1000 to 5000 nM"
compound="CC(C)(O)c1ncc(S(N)(=O)=NC(=O)Cc2cc3c(c4c2CCC4)CCC3)s1 (single isomer, unassigned)" obs_value="5000 to 30000 nM"
compound="CC(C)c1cc2c(c(C(C)C)c1CC(=O)N=S(N)(=O)c1sc(C(C)(C)O)cc1F)COC2 (stereo not drawn)" obs_value="40 to 200 nM"
compound="CC(C)c1ccc(F)c(C(C)C)c1CC(=O)N=S(N)(=O)c1cnn2c1OCCC2 (stereo not drawn)" obs_value="1000 to 5000 nM"

Q: Please report the recorded IC50 for CC(C)c1cc(COC2CCCC2)cc(C(C)C)c1CC(=O)N=S(N)(=O)c1cnc(C(C)(C)O)s1 (single isomer, unassigned) [Example 287] .
Ans: 40 to 200 nM

Q: What IC50 value was documented for this compound, CC(C)c1ccc(F)c(C(C)C)c1CC(=O)N=[S@@](N)(=O)c1cc(C(C)(C)O)cs1 ?
Ans: 200 to 1000 nM
